Tested on: Escherichia coli
Assay: Antibacterial activity against Escherichia coli KAM32 harboring plasmid pUC18 by CLSI broth microdilution method
Type: functional
Exam item: assign true (1) to entries whose MIC is below 0.5 µg/mL and false (0) to entries at or above 0.5 µg/mL. Note that a value of exactly 0.5 µg/mL receives false (0).

The examples below pair each entry with its known result.
1) CCn1cc(C(=O)O)c(=O)c2cc(F)c(N3CCNCC3)cc21 [NORFLOXACIN]: true (1)
2) [Cl-].c1ccc([P+](c2ccccc2)(c2ccccc2)c2ccccc2)cc1 [TETRAPHENYLPHOSPHONIUM CHLORIDE]: false (0)
3) C[n+]1ccc(-c2cc[n+](C)cc2)cc1.[Cl-].[Cl-] [PARAQUAT DICHLORIDE]: false (0)

**Q:** Hello, I'm reviewing records and need to know if MIC of CCCCCCCCCCCCOS(=O)(=O)[O-].[Na+] [SODIUM LAURYL SULFATE] is below 0.5 µg/mL. Could you check?
**A:** false (0)

**Q:** Please answer likewise for COc1cc(Cc2cnc(N)nc2N)cc(OC)c1OC [TRIMETHOPRIM]
**A:** true (1)

**Q:** Please answer likewise for O=C(N[C@H](CO)[C@H](O)c1ccc([N+](=O)[O-])cc1)C(Cl)Cl [CHLORAMPHENICOL]
**A:** true (1)

**Q:** Please answer likewise for N=C(NCCCCCCNC(=N)NC(=N)Nc1ccc(Cl)cc1)NC(=N)Nc1ccc(Cl)cc1 [CHLORHEXIDINE]
**A:** false (0)

**Q:** Please answer likewise for NCC[C@H](O)C(=O)N[C@@H]1C[C@H](N)[C@@H](O[C@H]2O[C@H](CN)[C@@H](O)[C@H](O)[C@H]2O)[C@H](O)[C@H]1O[C@H]1O[C@H](CO)[C@@H](O)[C@H](N)[C@H]1O [AMIKACIN]
**A:** false (0)

**Q:** Please answer likewise for CCBr [BROMOETHANE]
**A:** false (0)

----------
System: Acinetobacter baumannii
Test: Antibacterial activity against Acinetobacter baumannii AC0037 by CLSI broth microdilution method
Assay type: functional
PROPERTY LABEL: log10 MIC (log10 of the value in µg/mL)
The figures below represent log10 of MIC, where MIC is stated in µg/mL.

Worked cases, answers included:
1) N=C(NCCCCCCNC(=N)NC(=N)Nc1ccc(Cl)cc1)NC(=N)Nc1ccc(Cl)cc1: 1.51
2) O=C(N[C@H](CO)[C@H](O)c1ccc([N+](=O)[O-])cc1)C(Cl)Cl: 2.41
3) N=C(N)c1ccc(-c2cc3ccc(C(=N)N)cc3[nH]2)cc1: 0.30
4) CN(C)c1ccc2cc3ccc(N(C)C)cc3nc2c1: 2.30
5) CO[C@H]1/C=C/O[C@@]2(C)Oc3c(C)c(O)c4c(O)c(c(/C=N/N5CCN(C)CC5)c(O)c4c3C2=O)NC(=O)/C(C)=C\C=C\[C@H](C)[C@H](O)[C@@H](C)[C@@H](O)[C@@H](C)[C@H](OC(C)=O)[C@@H]1C: 0.30
6) CCn1cc(C(=O)O)c(=O)c2cc(F)c(N3CCNCC3)cc21: 2.71

**Q:** Consider the molecule `CCBr` and give its measured log10 MIC.
**A:** 3.01

**Q:** Please answer likewise for `CC[C@H]1OC(=O)[C@H](C)[C@@H](O[C@H]2C[C@@](C)(OC)[C@@H](O)[C@H](C)O2)[C@H](C)[C@@H](O[C@@H]2O[C@H](C)C[C@H](N(C)C)[C@H]2O)[C@](C)(O)C[C@@H](C)C(=O)[C@H](C)[C@@H](O)[C@]1(C)O`
**A:** 1.81

**Q:** Please answer likewise for [Cl-].c1ccc([P+](c2ccccc2)(c2ccccc2)c2ccccc2)cc1 [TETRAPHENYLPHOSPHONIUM CHLORIDE]
**A:** 3.18
